Attribution: patent US20240400708A1

molecular target: feline FcRn complex (FcRn-α subunit and β-microglobulin), biotin labeled (feline); test: SPR, pH 6
reported metric: pKd
For clarity, pKd is expressed as the negative log10 of concentration in mol/L.

For orientation, consider the following solved cases.
>  <binder>
feline IgG1a P247I (antibody, part only; not given: Variable domains, not shown: another chain or arm of the molecule) constant: ASTTAPSVFPLAPSCGTTSGATVALACLVLGYFPEPVTVSWNSGALTSGVHTFPAVLQASGLYSLSSMVTVPSSRWLSDTFTCNVAHPPSNTKVDKTVRKTDHPPGPKPCDCPKCPPPEMLGGPSIFIFPPKIKDTLSISRTPEVTCLVVDLGPDDSDVQITWFVDNTQVYTAKTSPREEQFNSTYRVVSVLPILHQDWLKGKEFKCKVNSKSLPSPIERTISKAKGQPHEPQVYVLPPAQEELSRNKVSVTCLIKSFHPPDIAVEWEITGQPEPENNYRTTPPQLDSDGTYFVYSKLSVDRSHWQRGNTYTCSVSHEALHSHHTQKSLTQSPGK

>  <pKd>
8.35

$$$$
>  <binder>
feline IgG1a S252H/S428M (antibody, part only; not given: Variable domains, not shown: another chain or arm of the molecule; small tags and cut ends) constant: ASTTAPSVFPLAPSCGTTSGATVALACLVLGYFPEPVTVSWNSGALTSGVHTFPAVLQASGLYSLSSMVTVPSSRWLSDTFTCNVAHPPSNTKVDKTVRKTDHPPGPKPCDCPKCPPPEMLGGPSIFIFPPKPKDTLHISRTPEVTCLVVDLGPDDSDVQITWFVDNTQVYTAKTSPREEQFNSTYRVVSVLPILHQDWLKGKEFKCKVNSKSLPSPIERTISKAKGQPHEPQVYVLPPAQEELSRNKVSVTCLIKSFHPPDIAVEWEITGQPEPENNYRTTPPQLDSDGTYFVYSKLSVDRSHWQRGNTYTCSVMHEALHSHHTQKSLTQSPGK

>  <pKd>
8.58

$$$$
>  <binder>
feline IgG1a A378Y (antibody, part only; not given: Variable domains, not shown: another chain or arm of the molecule; small tags and cut ends) constant: ASTTAPSVFPLAPSCGTTSGATVALACLVLGYFPEPVTVSWNSGALTSGVHTFPAVLQASGLYSLSSMVTVPSSRWLSDTFTCNVAHPPSNTKVDKTVRKTDHPPGPKPCDCPKCPPPEMLGGPSIFIFPPKPKDTLSISRTPEVTCLVVDLGPDDSDVQITWFVDNTQVYTAKTSPREEQFNSTYRVVSVLPILHQDWLKGKEFKCKVNSKSLPSPIERTISKAKGQPHEPQVYVLPPAQEELSRNKVSVTCLIKSFHPPDIYVEWEITGQPEPENNYRTTPPQLDSDGTYFVYSKLSVDRSHWQRGNTYTCSVSHEALHSHHTQKSLTQSPGK

>  <pKd>
7.16

$$$$

Next item in the queue.
-- ask # input binder: feline IgG1a S252Y/S428M/L314K (antibody, part only; not given: Variable domains, not shown: another chain or arm of the molecule) constant: ASTTAPSVFPLAPSCGTTSGATVALACLVLGYFPEPVTVSWNSGALTSGVHTFPAVLQASGLYSLSSMVTVPSSRWLSDTFTCNVAHPPSNTKVDKTVRKTDHPPGPKPCDCPKCPPPEMLGGPSIFIFPPKPKDTLYISRTPEVTCLVVDLGPDDSDVQITWFVDNTQVYTAKTSPREEQFNSTYRVVSVLPILHQDWKKGKEFKCKVNSKSLPSPIERTISKAKGQPHEPQVYVLPPAQEELSRNKVSVTCLIKSFHPPDIAVEWEITGQPEPENNYRTTPPQLDSDGTYFVYSKLSVDRSHWQRGNTYTCSVMHEALHSHHTQKSLTQSPGK ; wanted: its pKd
-- reply 8.67
